The origin of these recorded values is PubChem BioAssay (NCI).

System: SK-OV-3 ovarian
MEASUREMENT_NOTES: NCI tumour cell line growth inhibition, 48 h
In this section, each of the compounds is paired with its reported TGI.

Known TGI results, listed for orientation:
                    compound  endpoint_result
0  CC1=Cc2cccc(C)c2C(=O)C1=O          36.8 µM
1   Cc1nc(N)sc1N=Nc1ccccc1Br         > 100 µM

Fill in: TGI of O=S(=O)(O)C(CO)c1ccccc1 (stereo unspecified) (tested in a mixture with another compound) is ___ > 100 µM

TGI for C/C(CC(=O)Nc1ccc(C)c(C)c1)=N\N(c1ccccc1)c1ccccc1 ? > 100 µM

# TGI lookup, item CN(C)C1CCN(C(=O)c2ccc(NC(=O)Nc3ccc(-c4nc(N5CCOCC5)c5cccn5n4)cc3)cc2)CC1 0.252 µM

What does the record list as TGI for COCC(OC)C(CC=C(C#N)C#N)OC (stereo unspecified) ? > 100 µM
